System: isolated rat ileums
Method: Smooth muscle relaxing activity by the method of Brock et al. on isolated rat ileums
Test parameters: related to Papaverine (1.0)
The following molecules are listed with their measured Smooth muscle relaxant activity, relative efficiency values.
Assay readout: Smooth muscle relaxant activity, relative efficiency

{"Molecule": "CC(COc1ccccc1)N[C@@H](CO)[C@@H](O)c1ccccc1 (relative stereo) [Compound 2]", "Value observed": 0.50}
{"Molecule": "CC(COc1ccccc1)N[C@@H](CO)[C@@H](O)c1ccccc1 (single isomer, unassigned; (+)) [Compound 3]", "Value observed": 1.03}
{"Molecule": "CC(COc1ccccc1)N[C@H](CO)[C@H](O)c1ccccc1 (single isomer, unassigned; (-)) [Compound 4]", "Value observed": 0.80}
{"Molecule": "COc1ccc(Cc2nccc3cc(OC)c(OC)cc23)cc1OC [Papaverine, reference compound]", "Value observed": 1.0}

---

Method: in vivo
Test parameters: rat, iv, rats, i.v., read-out: LD50-value (acute intravenous toxicity)
Description: The acute intravenous toxicity was determined on rats of both sexes, using five animals for each doses. The relative anti-anginose activity was calculated on the basis of the following equation: [formula]

{"Compound": "CC(Cc1ccccc1)NCCC(c1ccccc1)c1ccccc1 (stereo not shown) [Prenilamine, reference compound]", "LD50 (mg/kg)": 11.5}
